- target-desc: macaque CD45RC (cynomolgus macaque)
- assay-notes: flow cytometry, cynomolgus macaque PBMC, CD3- cells; 10 µg/ml (p-1486)
outcome-measure: % of cells CD45RC+ (%)
Just the number in %, nothing appended.

Completed entries (count: 3):
Anti-45RC Variant A3 (antibody, human IgG1, kappa, V domains shown) VH: QVQLVQSGAEVKKPGASVKVSCKASGYTFTNYYIGWVRQAPGQGLEWIGDIFPGGGYTNYAEKFQGRVTLTADTSISTAYMELSRLRSDDTVVYYCVRRNFDYWGQGTLVTVSS VL: DIQLTQSPSFLSASVGDRVTITCRASSSVSYMHWYQQKPGKAPKLWIYNTSNLPSGVPSRFSGSGSGTEYTLTISSLQPEDFATYYCQQRSSYPLTFGGGTKVEIKR | 82.6
ABIS-45RC (antibody, mouse IgG1, kappa, V domains shown, the variable domains are the same; also called murine ABIS-45RC; murine anti-hCD45RC antibody of the invention) VH: QVQLQQSGAELVRPGTSVKMSCKAAGYTFTNYYIGWVKQRPGHGLEWIGDIFPGGDYANSNEKFKGKATLTADTSSSTAYMQLSSLTSEDSAIYYCVRRNFDYWGQGTTLTVSS VL: QIVLTQSPTIMSASPGEKVTITCSASSSVSYMHWFQQKTGTSPRLWIYNTSNLPSGVPARFSGSGSGTSYSLTISRMEAEDAATYYCQQRSSYPLTFGAGTKLELKR | 74.1
Anti-45RC Variant A1 (antibody, human IgG1, kappa, V domains shown) VH: QVQLVQSGAEVKKPGASVKVSCKASGYTFTNYYIGWVRQAPGQGLEWIGDIFPGGDYTNYAEKFQGRVTLTADTSISTAYMELSRLRSDDTVVYYCVRRNFDYWGQGTLVTVSS VL: DIQLTQSPSFLSASVGDRVTITCRASSSVSYMHWYQQKPGKAPKLWIYNTSNLPSGVPSRFSGSGSGTEYTLTISSLQPEDFATYYCQQRSSYPLTFGGGTKVEIKR | 76.3

Would you kindly look at the next entry?
[Q] Determine from records and report % of cells CD45RC+ for Anti-45RC Variant A (antibody, human IgG1, kappa, V domains shown) VH: QVQLVQSGAEVKKPGASVKVSCKASGYTFTNYYIGWVRQAPGQGLEWIGDIFPGGDYANSNEKFKGRVTLTADTSISTAYMELSRLRSDDTVVYYCVRRNFDYWGQGTLVTVSS VL: DIQLTQSPSFLSASVGDRVTITCSASSSVSYMHWFQQKPGKAPKLWIYNTSNLPSGVPSRFSGSGSGTEYTLTISSLQPEDFATYYCQQRSSYPLTFGGGTKVEIKR
[A] 75.6
